TGT: Protein arginine N-methyltransferase 1 (Homo sapiens, UniProt Q99873)
Sequence (Q99873 whole entry): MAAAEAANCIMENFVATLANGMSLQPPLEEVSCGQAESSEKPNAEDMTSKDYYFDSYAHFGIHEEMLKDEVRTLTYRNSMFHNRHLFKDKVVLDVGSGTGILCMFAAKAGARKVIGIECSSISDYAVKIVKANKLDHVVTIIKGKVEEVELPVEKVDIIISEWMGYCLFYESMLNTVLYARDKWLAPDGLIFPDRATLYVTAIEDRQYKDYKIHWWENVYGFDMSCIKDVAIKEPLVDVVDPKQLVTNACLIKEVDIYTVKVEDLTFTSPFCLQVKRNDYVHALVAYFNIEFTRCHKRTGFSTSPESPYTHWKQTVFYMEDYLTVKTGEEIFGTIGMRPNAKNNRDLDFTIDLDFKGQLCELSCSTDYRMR
PROTOCOL DETAILS: Displacement of [3H]-SAM from recombinant His6-tagged PRMT1 (unknown origin) expressed in Escherichia coli BL21(DE3) incubated for 5 mins prior to H4(1 to 20)-BTN peptide addition measured after 8 mins by scintillation proximity assay
Collected log10 IC50 values appear next to each entry.
PROPERTY NAME: log10 IC50 (log10 of the value in µM)

{"columns": ["SMILES STRUCTURE", "log10 IC50"],
 "data": [
  ["CCCCN1/C(=C/C=C/c2sc3cc(Br)ccc3[n+]2CCCC)Sc2cc(Br)ccc21", 0.43],
  ["CCN1/C(=C/C=C/c2sc3cc(Br)ccc3[n+]2CC)Sc2cc(Br)ccc21", 0.81],
  ["CCCCN1/C(=C\\C=C\\C2=[N+](CCCC)c3ccc4ccccc4c3C2(C)C)C(C)(C)c2c1ccc1ccccc21", 0.41],
  ["CCCCN1/C(=C/C=C/c2sc3c4ccccc4ccc3[n+]2CCCC)Sc2c1ccc1ccccc21", 0.60],
  ["CCN1/C(=C/C=C/C=C/C2=[N+](CC)c3ccc4ccccc4c3C2(C)C)C(C)(C)c2c1ccc1ccccc21", 0.53],
  ["CC1(C)C(/C=C/C=C2/N(CCCc3ccccc3)c3ccc4ccccc4c3C2(C)C)=[N+](CCCc2ccccc2)c2ccc3ccccc3c21", -0.21],
  ["CCCCN1/C(=C/C=C(Br)/C=C/C2=[N+](CCCC)c3ccc(Br)cc3C2(C)C)C(C)(C)c2cc(Br)ccc21", 0.53],
  ["CCN1/C(=C/C(C)=C/c2sc3c4ccccc4ccc3[n+]2CC)Sc2c1ccc1ccccc21", 0.37],
  ["CC1(C)C(/C=C/C=C/C=C2/N(CCCc3ccccc3)c3ccc4ccccc4c3C2(C)C)=[N+](CCCc2ccccc2)c2ccc3ccccc3c21", 0.76],
  ["CC1(C)C(/C=C/C(Cl)=C/C=C2/N(CCCc3ccccc3)c3ccc4ccccc4c3C2(C)C)=[N+](CCCc2ccccc2)c2ccc3ccccc3c21", 0.26],
  ["C(/C=C/c1sc2c3ccccc3ccc2[n+]1CCCc1ccccc1)=C1/Sc2c(ccc3ccccc23)N1CCCc1ccccc1", 0.48],
  ["CC1(C)C(/C=C/C=C2/N(CCCc3ccccc3)c3ccc(Cl)cc3C2(C)C)=[N+](CCCc2ccccc2)c2ccc(Cl)cc21", 0.06],
  ["CC1(C)C(/C=C/C=C2/N(CCCc3ccccc3)c3ccc(Br)cc3C2(C)C)=[N+](CCCc2ccccc2)c2ccc(Br)cc21", 0.10],
  ["CCCCN1/C(=C/C=C/c2sc3ccc(Br)cc3[n+]2CCCC)Sc2ccc(Br)cc21", 0.31]
]}
